Value source: patent US20260042764A1

- Measurement target: Avi-KRAS G12D (2-169) GTP/RAF1 RBD-3xFLAG (51-131) (Homo sapiens, UniProt P01116, G12D)
- Construct: Avi-KRAS G12D (2-169)
- Sequence (P01116 2-169 isoform P01116-2 G12D): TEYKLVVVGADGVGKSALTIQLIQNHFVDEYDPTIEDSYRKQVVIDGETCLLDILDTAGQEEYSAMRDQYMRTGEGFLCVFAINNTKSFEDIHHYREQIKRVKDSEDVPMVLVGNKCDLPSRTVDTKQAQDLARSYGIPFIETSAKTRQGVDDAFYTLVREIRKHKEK
- Assay overview: Raf1-KRAS G12D-GTP disruption HTRF assay (Biological Example 3)
- Type: binding
- Applied conditions: KRAS G12D, GTP-loaded
pIC50: −log10 of the molar value.
Each entry below carries its reported pIC50.

Solved cases (3 shown):
Compound	Measurement target	pIC50
COC(=O)N1CC[C@H](N(CCF)c2nc(OC[C@@]34CCCN3C[C@H](F)C4)nc3c(F)c(-c4ccc(F)c5sc(N)c(C#N)c45)c(C(F)(F)F)cc23)C1 (atropisomer, axis not shown)	Avi-KRAS G12D (2-169) GTP/RAF1 RBD-3xFLAG (51-131) (Homo sapiens, UniProt P01116, G12D)	6.00 to 7.00
CCN(c1nc(OC[C@@]23CCCN2C[C@H](F)C3)nc2c(F)c(-c3ccc(F)c4sc(N)c(C#N)c34)c(C(F)(F)F)cc12)[C@H]1CCN(C(=O)c2ncoc2C)C1 (atropisomer, axis not shown)	Avi-KRAS G12D (2-169) GTP/RAF1 RBD-3xFLAG (51-131) (Homo sapiens, UniProt P01116, G12D)	6.00 to 7.00
CCC(=O)N1C[C@H](N(CC)c2nc(OC[C@@]34CCCN3C[C@H](F)C4)nc3c(F)c(-c4ccc(F)c5sc(N)c(C#N)c45)c(C(F)(F)F)cc23)C[C@@H]1C (atropisomer, axis not shown)	Avi-KRAS G12D (2-169) GTP/RAF1 RBD-3xFLAG (51-131) (Homo sapiens, UniProt P01116, G12D)	6.00 to 7.00

Field: pIC50 (Avi-KRAS G12D (2-169) GTP/RAF1 RBD-3xFLAG (51-131) (Homo sapiens, UniProt P01116, G12D)). Entry: CN(c1nc(OC[C@@]23CCCN2C[C@H](F)C3)nc2c(F)c(-c3ccc(F)c4sc(N)c(C#N)c34)c(C(F)(F)F)cc12)[C@H]1CC(=O)N2CCC[C@H]12 (atropisomer, axis not shown) 6.00 to 7.00

Next record, please: CCN(c1nc(OCC23CCCN2CC(F)C3)nc2c(F)c(-c3ccc(F)c4sc(N)c(C#N)c34)c(C(F)(F)F)cc12)C1CC(C)N(C(=O)C2CC2(F)F)C1 (centres unmarked) 6.00 to 7.00
